target: human claudin 18 splice variant 2 (CLDN18.2) (human); assay: cell-based or functional assay
reported_property: Cell viability EC50 [ng/ml], Fab-ZAP endocytosis assay on HEK293~CLDN18.2 cells (ng/mL)
Output spec: scalar in ng/mL, unitless text.

Q: Which Cell viability EC50 [ng/ml], Fab-ZAP endocytosis assay on HEK293~CLDN18.2 cells value is on record for chim mAB294 (antibody, V domains shown) VH: QIQLVQSGPELKKPGETVKISCKASGYTFTNYGMNWVKQAPGKGLKWMGWINTNTGEPTYAEEFKGRFAFSLETSASTAYLQINNLKNEDTATYFCARLGFGNAMDYWGQGTSVTVSS VL: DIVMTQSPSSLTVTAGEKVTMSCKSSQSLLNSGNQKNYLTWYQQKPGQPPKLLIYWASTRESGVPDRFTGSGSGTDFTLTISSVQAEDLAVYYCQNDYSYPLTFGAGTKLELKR ?
Result: 10

Q: And mu mAB362 (mouse IgG1) (antibody, V domains shown, also called mu muAB362 (IgG1)) VH: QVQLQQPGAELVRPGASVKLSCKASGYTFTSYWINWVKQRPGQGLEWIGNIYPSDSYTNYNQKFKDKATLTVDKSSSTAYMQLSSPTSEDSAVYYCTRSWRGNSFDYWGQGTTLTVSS VL: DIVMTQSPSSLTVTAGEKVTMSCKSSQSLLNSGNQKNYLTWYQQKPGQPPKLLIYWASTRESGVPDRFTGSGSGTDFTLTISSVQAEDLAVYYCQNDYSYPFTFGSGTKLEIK ?
Result: 2.2

Q: And IMAB362 (antibody, V domains shown, Chimeric human IgG1 kappa; CDR1 at 45-52); also called chim mAb362; chim mAB362) VH: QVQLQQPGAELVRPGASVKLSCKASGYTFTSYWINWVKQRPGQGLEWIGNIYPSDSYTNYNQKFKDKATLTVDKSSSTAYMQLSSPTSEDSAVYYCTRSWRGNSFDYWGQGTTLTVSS VL: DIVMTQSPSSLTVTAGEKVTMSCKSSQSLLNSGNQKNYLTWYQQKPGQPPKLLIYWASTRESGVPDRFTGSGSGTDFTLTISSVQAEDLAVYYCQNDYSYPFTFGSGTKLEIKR ?
Result: 11

Cited source: patent US20180117174A1
